Every entry's value here was drawn from ChEMBL document CHEMBL5727310.

experimental_target: Sigma non-opioid intracellular receptor 1 (Homo sapiens, UniProt Q99720)
Sequence (Q99720 whole entry): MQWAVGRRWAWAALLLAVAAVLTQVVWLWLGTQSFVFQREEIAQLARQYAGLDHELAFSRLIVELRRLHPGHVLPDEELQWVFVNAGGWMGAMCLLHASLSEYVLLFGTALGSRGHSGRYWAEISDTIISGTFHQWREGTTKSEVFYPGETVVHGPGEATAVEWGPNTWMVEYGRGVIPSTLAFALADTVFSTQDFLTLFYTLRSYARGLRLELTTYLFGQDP
assay_protocol: Receptor Radioligand Assay: To investigate binding properties of test compounds to human σ1 receptor, transfected HEK-293 membranes and [3H](+)-pentazocine (Perkin Elmer, NET-1056), as the radioligand, were used. The assay was carried out with 7 μg of membrane suspension, 5 nM of [3H](+)-pentazocine in either absence or presence of either buffer or 10 μM Haloperidol for total and non-specific binding, respectively. Binding buffer contained Tris-HCl 50 mM at pH 8. Plates were incubated at 37° C. for 120 minutes. After the incubation period, the reaction mix was then transferred to MultiScreen HTS, FC plates (Millipore), filtered and plates were washed 3 times with ice-cold 10 mM Tris-HCL (pH7.4). Filters were dried and counted at approximately 40% efficiency in a MicroBeta scintillation counter (Perkin-Elmer) using EcoScint liquid scintillation cocktail
measurement_type: Ki

>>> df
                                   molecule  measurement_type  value_measured
0  CCN1CC(C2CCN(CCC(C)C)CC2)OC2(CC2)C1 (stereo unspecified)                Ki        < 500 nM
